Cited source: ChEMBL document CHEMBL5584338

Test system: MIA PaCa-2
Assay: Antiproliferative activity against human MIA PaCa-2 cells harboring KRAS G12C mutant incubated for 72 hrs by CCK8 assay
Type: functional, cell-based
Details: MIA PaCa-2, 72 h
READOUT KIND: pIC50
The scale used: pIC50 is minus the common logarithm of the concentration in molar units.

Study these solved cases before continuing.
CNS(=O)(=O)Nc1cccc(Cn2cnc3c(F)c(Nc4ccc(I)cc4F)c(C(=O)NOCCO)cc32)c1Cl; 7.22
CCC(=O)Nc1cccc(Cn2cnc3c(F)c(Nc4ccc(C5CC5)cc4F)c(C(=O)NOCCO)cc32)c1; 6.01
Cn1cnc2c(F)c(Nc3ccc(Br)cc3F)c(C(=O)NOCCO)cc21 [BINIMETINIB]; 6.74

Continue with the compound presented below.
Problem: Data request, read-out pIC50, for CCNS(=O)(=O)Nc1cccc(Cn2cnc3c(F)c(Nc4ccc(C5CC5)cc4F)c(C(=O)NOCCO)cc32)c1F
Result: 7.96

----------
Assay: Stability in human liver microsomes assessed as half life at 200 uM preincubated for 5 mins followed by NADPH addition measured upto 60 mins by LC-MS/MS analysis
Format: ADME, Microsome
Conditions: time 65 min
READOUT KIND: half-life at 200 µM
Your reply should be a number followed by the unit it is expressed in.

CNS(=O)(=O)Nc1cccc(Cn2cnc3c(F)c(Nc4ccc(C5CC5)cc4F)c(C(=O)NOCCO)cc32)c1F; 37.7 min

Problem: Data request, read-out half-life at 200 µM, for CNS(=O)(=O)Nc1cccc(Cn2cnc3c(F)c(Nc4ccc(I)cc4F)c(C(=O)NOCCO)cc32)c1F
Result: 25 min

Problem: Data request, read-out half-life at 200 µM, for CCNS(=O)(=O)Nc1cccc(Cn2cnc3c(F)c(Nc4ccc(C5CC5)cc4F)c(C(=O)NOCCO)cc32)c1F
Result: 58.7 min

Problem: Data request, read-out half-life at 200 µM, for CCNS(=O)(=O)Nc1cccc(Cn2cnc3c(F)c(Nc4ccc(C5CC5)cc4F)c(C(=O)NOCCO)cc32)c1
Result: 47.5 min

----------
Recorded measurements of inhibition at 1 µM, one per entry
Tested on: HCT-116
Assay: Antiproliferative activity against human HCT-116 cells harboring KRAS G13D mutant at 1 uM incubated for 72 hrs by CCK8 assay relative to control
Format: functional
Answer with a number only, understood to be in %.

Problem: Data request, read-out inhibition at 1 µM, for CNS(=O)(=O)Nc1cccc(Cn2cnc3c(F)c(Nc4ccc(Br)cc4F)c(C(=O)NOCCO)cc32)c1Cl
Result: 47.8

Problem: Data request, read-out inhibition at 1 µM, for CNS(=O)(=O)Nc1cccc(Cn2cnc3c(F)c(Nc4ccc(I)cc4F)c(C(=O)NOCCO)cc32)c1Cl
Result: 66.7

----------
Molecular target: Serine/threonine-protein kinase B-raf (Homo sapiens, UniProt P15056)
Sequence (P15056 whole entry): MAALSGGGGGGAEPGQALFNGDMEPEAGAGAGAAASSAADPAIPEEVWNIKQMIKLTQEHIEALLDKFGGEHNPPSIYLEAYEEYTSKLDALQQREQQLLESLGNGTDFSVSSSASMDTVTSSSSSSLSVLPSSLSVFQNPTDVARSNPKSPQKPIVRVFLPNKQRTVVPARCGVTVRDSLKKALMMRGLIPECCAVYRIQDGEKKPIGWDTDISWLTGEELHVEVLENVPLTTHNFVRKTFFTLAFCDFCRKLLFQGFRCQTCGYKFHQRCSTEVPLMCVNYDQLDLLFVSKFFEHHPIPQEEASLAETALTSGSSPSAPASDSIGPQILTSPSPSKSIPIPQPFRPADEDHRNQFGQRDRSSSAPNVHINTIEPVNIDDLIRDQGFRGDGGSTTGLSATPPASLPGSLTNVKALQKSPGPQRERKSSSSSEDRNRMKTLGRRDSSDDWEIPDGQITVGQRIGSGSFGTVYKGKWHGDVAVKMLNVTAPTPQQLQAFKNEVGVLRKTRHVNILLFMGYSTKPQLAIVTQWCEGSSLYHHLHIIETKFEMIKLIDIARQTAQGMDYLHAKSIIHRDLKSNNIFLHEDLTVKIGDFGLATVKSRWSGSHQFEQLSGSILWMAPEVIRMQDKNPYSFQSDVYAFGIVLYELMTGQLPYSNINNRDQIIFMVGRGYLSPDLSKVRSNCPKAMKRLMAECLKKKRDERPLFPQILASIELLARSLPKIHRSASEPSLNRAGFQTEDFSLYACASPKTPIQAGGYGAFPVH
READOUT KIND: IC50 (nM)
Answer with a number only, understood to be in nM.

CCNS(=O)(=O)Nc1cccc(Cn2cnc3c(F)c(Nc4ccc(C5CC5)cc4F)c(C(=O)NOCCO)cc32)c1F; 3

Problem: Data request, read-out IC50, for CNS(=O)(=O)Nc1cccc(Cn2cnc3c(F)c(Nc4ccc(C5CC5)cc4F)c(C(=O)NOCCO)cc32)c1
Result: 5

Problem: Data request, read-out IC50, for CNS(=O)(=O)Nc1cccc(Cn2cnc3c(F)c(Nc4ccc(I)cc4F)c(C(=O)NOCCO)cc32)c1F
Result: 4

----------
System: MIA PaCa-2
Experiment: Antiproliferative activity against human MIA PaCa-2 cells harboring KRAS G12C mutant incubated for 72 hrs by CCK8 assay
Type: functional, cell-based
Settings: MIA PaCa-2, 72 h
READOUT KIND: pIC50
The scale used: pIC50 is minus the common logarithm of the concentration in molar units.

Study these solved cases before continuing.
CC(C)CNS(=O)(=O)Nc1cccc(Cn2cnc3c(F)c(Nc4ccc(C5CC5)cc4F)c(C(=O)NOCCO)cc32)c1; 7.32
CC(=O)Nc1cccc(Cn2cnc3c(F)c(Nc4ccc(C5CC5)cc4F)c(C(=O)NOCCO)cc32)c1; 6.63
CCNS(=O)(=O)Nc1cc(F)cc(Cn2cnc3c(F)c(Nc4ccc(C5CC5)cc4F)c(C(=O)NOCCO)cc32)c1; 7.49

Problem: Data request, read-out pIC50, for O=C(NOCCO)c1cc2c(ncn2Cc2cccc(NC(=O)C3CCC3)c2)c(F)c1Nc1ccc(C2CC2)cc1F
Result: 5.89

----------
Tested on: HCT-116
Assay: Antiproliferative activity against human HCT-116 cells harboring KRAS G13D mutant incubated for 72 hrs by CCK8 assay
Format: functional, cell-based
Details: HCT-116, 72 h
READOUT KIND: pIC50
The scale used: pIC50 is minus the common logarithm of the concentration in molar units.

CCNS(=O)(=O)Nc1cccc(Cn2cnc3c(F)c(Nc4ccc(C5CC5)cc4F)c(C(=O)NOCCO)cc32)c1Cl; 6.14
CNS(=O)(=O)Nc1cccc(Cn2cnc3c(F)c(Nc4ccc(C5CC5)cc4F)c(C(=O)NOCCO)cc32)c1Cl; 6.20
CCNS(=O)(=O)Nc1cccc(Cn2cnc3c(F)c(Nc4ccc(C5CC5)cc4F)c(C(=O)NOCCO)cc32)c1F; 7.10
CNS(=O)(=O)Nc1nccc(Cc2c(C)c3ccc(Oc4ncccn4)cc3oc2=O)c1F [AVUTOMETINIB]; 6.13

Problem: Data request, read-out pIC50, for CCNS(=O)(=O)Nc1cc(F)cc(Cn2cnc3c(F)c(Nc4ccc(C5CC5)cc4F)c(C(=O)NOCCO)cc32)c1
Result: 6.85

Problem: Data request, read-out pIC50, for CCNS(=O)(=O)Nc1cccc(Cn2cnc3c(F)c(Nc4ccc(C5CC5)cc4F)c(C(=O)NOCCO)cc32)c1
Result: 6.91

Problem: Data request, read-out pIC50, for CNS(=O)(=O)Nc1cccc(Cn2cnc3c(F)c(Nc4ccc(C5CC5)cc4F)c(C(=O)NOCCO)cc32)c1
Result: 6.65

Problem: Data request, read-out pIC50, for CNS(=O)(=O)Nc1cccc(Cn2cnc3c(F)c(Nc4ccc(I)cc4F)c(C(=O)NOCCO)cc32)c1Cl
Result: 6.45

----------
Recorded measurements of Activity, one per entry
Target: Dual specificity mitogen-activated protein kinase kinase 1 (Homo sapiens, UniProt Q02750)
Sequence (Q02750 whole entry): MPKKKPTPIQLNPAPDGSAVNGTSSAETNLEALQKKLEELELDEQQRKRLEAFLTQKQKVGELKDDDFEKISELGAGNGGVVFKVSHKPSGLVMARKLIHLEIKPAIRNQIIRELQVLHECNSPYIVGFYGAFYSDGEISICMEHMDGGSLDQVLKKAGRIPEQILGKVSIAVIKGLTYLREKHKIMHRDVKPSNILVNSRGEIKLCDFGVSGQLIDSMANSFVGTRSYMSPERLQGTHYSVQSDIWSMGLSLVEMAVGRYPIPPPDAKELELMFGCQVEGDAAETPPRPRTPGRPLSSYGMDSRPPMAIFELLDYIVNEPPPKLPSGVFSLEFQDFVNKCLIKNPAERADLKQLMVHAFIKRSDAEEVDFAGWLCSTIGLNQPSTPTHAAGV
Assay: Inhibition of MEK1 (unknown origin) assessed as remaining activity at 0.1 uM relative to control
Answer with a number only, understood to be in %.

O=C(NOCCO)c1cc2c(ncn2Cc2cccc(NC(=O)C3CCC3)c2)c(F)c1Nc1ccc(C2CC2)cc1F; 76
CNS(=O)(=O)Nc1cccc(Cn2cnc3c(F)c(Nc4ccc(Br)cc4F)c(C(=O)NOCCO)cc32)c1Cl; 15
CNS(=O)(=O)Nc1cccc(Cn2cnc3c(F)c(Nc4ccc(C)cc4F)c(C(=O)NOCCO)cc32)c1F; 58

Problem: Data request, read-out Activity, for CNS(=O)(=O)Nc1cc(Cn2cnc3c(F)c(Nc4ccc(C5CC5)cc4F)c(C(=O)NOCCO)cc32)ccc1F
Result: 85

Problem: Data request, read-out Activity, for CCNS(=O)(=O)Nc1cccc(Cn2cnc3c(F)c(Nc4ccc(C5CCC5)cc4F)c(C(=O)NOCCO)cc32)c1F
Result: 84

Problem: Data request, read-out Activity, for CNS(=O)(=O)Nc1cc(F)cc(Cn2cnc3c(F)c(Nc4ccc(C5CC5)cc4F)c(C(=O)NOCCO)cc32)c1
Result: 53

Problem: Data request, read-out Activity, for CCNS(=O)(=O)Nc1cccc(Cn2cnc3c(F)c(Nc4ccc(C)cc4F)c(C(=O)NOCCO)cc32)c1F
Result: 54

Problem: Data request, read-out Activity, for CC(C)NS(=O)(=O)Nc1cccc(Cn2cnc3c(F)c(Nc4ccc(C5CC5)cc4F)c(C(=O)NOCCO)cc32)c1
Result: 55

----------
Molecular target: Dual specificity mitogen-activated protein kinase kinase 1 (Homo sapiens, UniProt Q02750)
Assay: Inhibition of MEK1 (unknown origin) assessed as remaining activity at 0.1 uM relative to control
Activity strictly under 60% means 1 (yes); at 60% or over means 0 (no).

Use the examples below as a reference point.
CC(C)CNS(=O)(=O)Nc1cccc(Cn2cnc3c(F)c(Nc4ccc(C5CC5)cc4F)c(C(=O)NOCCO)cc32)c1; 0 (no)
CNS(=O)(=O)Nc1cccc(Cn2cnc3c(F)c(Nc4ccc(C5CC5)cc4F)c(C(=O)NOCCO)cc32)c1; 1 (yes)
CCNS(=O)(=O)Nc1cccc(Cn2cnc3c(F)c(Nc4ccc(C5CC5)cc4F)c(C(=O)NOCCO)cc32)c1; 1 (yes)
CNS(=O)(=O)Nc1cccc(Cn2cnc3c(F)c(Nc4ccc(Br)cc4F)c(C(=O)NOCCO)cc32)c1F; 1 (yes)
CCNS(=O)(=O)Nc1cccc(Cn2cnc3c(F)c(Nc4ccc(I)cc4F)c(C(=O)NOCCO)cc32)c1Cl; 1 (yes)
CNS(=O)(=O)Nc1cccc(Cn2cnc3c(F)c(Nc4ccc(C5CCCC5)cc4F)c(C(=O)NOCCO)cc32)c1F; 0 (no)

Problem: Is it true that Activity reported for CCNS(=O)(=O)Nc1cccc(Cn2cnc3c(F)c(Nc4ccc(Br)cc4F)c(C(=O)NOCCO)cc32)c1F is less than 60%?
Result: 1 (yes)
